We begin with a simple list: items and their reported growth.
System: RPMI-8226 leukemia
Assay: NCI-60 one-dose screen, 48 h (100 = growth as untreated, 0 = no growth, -100 = all killed)
Conditions: 10 µM unless noted
The panel holds about 83,000 compounds, 20% with a hit somewhere; the sample as a whole holds those more often.
MEASURED ENDPOINT: growth (%)

COMPOUND	MEASURED ENDPOINT	UNIT	OBSERVED
CCCC(C)SP(=S)(SC(C)CCC)SC(C)CCC (stereo not given)	growth	%	105
CCCn1cc2c3c(cccc31)[C@H]1C[C@@H](C)CN(C)[C@@H]1C2	growth	%	48.4
Cc1cc[c-]cc1.Fc1c[c-]c(-c2ccccn2)c(F)c1.[Pt+2].c1ccc([PH+](c2ccccc2)c2ccccn2)cc1	growth	%	15.9
O=[N+]([O-])c1ccc2scc3c4ccccc4nc-3c2c1	growth	%	-29.5
COc1ccc2c(c1)C1(C)CCN(C)CC(C1)C2O (stereo not given)	growth	%	98.7
CN(C)c1ccc(C=C2C(=O)NC(=O)NC2=O)cc1	growth	%	131
CC/C(=C(\c1ccc(OCCN2CCOCC2)cc1)c1ccc(OC(=O)Cc2ccccc2)cc1)c1ccc(Cl)cc1	growth	%	98.8
C[N+]1(C)CCCC1c1cccnc1 (stereo not given)	growth	%	99.4
C[C@]12CCc3sc(Nc4ccc(O)cc4)nc3C1=CC[C@@H]1[C@@H]2CC[C@]2(C)C(=O)CC[C@@H]12	growth	%	-24.5
COc1c(O)cc2c(c1OC)-c1ccc(SC)c(=O)cc1C(NC(C)=O)CC2 (stereo not given)	growth	%	0.467
CC1=C2[C@H]3OC(=O)[C@@H](C)[C@@H]3CC[C@@]2(C)C=CC1=O	growth	%	91
CC(=O)C(N)Cc1ccccc1 (stereo not given)	growth	%	79.6
C[C@]12CCC3[C@@H](C[C@@H]4SC(Nc5ccccc5)=N[C@@]45CC(=O)CC[C@]35C)[C@@H]1CCC2=O (stereo not given in full)	growth	%	-14.8
CCN(CC)CCn1c(=O)n(C)c2ccccc21	growth	%	113
CC[C@H](CC[C@@H](C)[C@H]1CC[C@H]2[C@@H]3CC[C@H]4C[C@]5(CC[C@]4(C)[C@H]3CC[C@]12C)OO[C@](C)(C(F)(F)F)O5)C(C)C	growth	%	98.3
CCOC(=O)c1ccccc1C(=O)OCC	growth	%	88.1
C[C@]12CC[C@H]3[C@@H](CC=C4c5nc(N)sc5CC[C@@]43C)[C@@H]1CC[C@@H]2O	growth	%	103
CC(C)CCC1C(=O)NC(=O)NC1=O	growth	%	113
NC(N)=NC(N)=Nc1ccc(Cl)cc1	growth	%	94.2
NC(=O)Oc1cc(OC(N)=O)cc(N(CCCl)CCCl)c1	growth	%	59.7
Cc1cc2c(cc1-c1ccnc(/C=C/C(=O)O)c1)C(C)(C)CCC2(C)C	growth	%	41.4
C[C@@]12CCCc3coc(c31)C(=O)c1cc3c(cc12)C(=O)C1=C(NCCS1(=O)=O)C3=O	growth	%	-30.4
CNC(=O)O/N=C(\SC)C(=O)N(C)C	growth	%	86
O=C(NC1=NCC[Se]1)c1ccccc1O	growth	%	64.8
O=[N+]([O-])c1ccc(CI)cc1	growth	%	53.2
C[C@]12CCc3nc(-c4ccc(O)c(O)c4)sc3C1=CC[C@@H]1[C@@H]2CC[C@]2(C)C(=O)CC[C@@H]12	growth	%	9.9
N#CCCc1ccccc1	growth	%	111
O=c1[nH]c(=O)[nH]c(=O)[nH]1	growth	%	60.1
CO[C@@H]([CH2][Hg][O]C(=O)c1ccccc1)[C@@H]([CH2][Hg][O]C(=O)c1ccccc1)OC	growth	%	92.2
CC1=CC(=O)CCC12CCOC2=O (stereo not given)	growth	%	88.3

Source: PubChem BioAssay (NCI)
